Experimental target: RUNX1 (UniProt Q01196)
Sequence (Q01196 whole entry): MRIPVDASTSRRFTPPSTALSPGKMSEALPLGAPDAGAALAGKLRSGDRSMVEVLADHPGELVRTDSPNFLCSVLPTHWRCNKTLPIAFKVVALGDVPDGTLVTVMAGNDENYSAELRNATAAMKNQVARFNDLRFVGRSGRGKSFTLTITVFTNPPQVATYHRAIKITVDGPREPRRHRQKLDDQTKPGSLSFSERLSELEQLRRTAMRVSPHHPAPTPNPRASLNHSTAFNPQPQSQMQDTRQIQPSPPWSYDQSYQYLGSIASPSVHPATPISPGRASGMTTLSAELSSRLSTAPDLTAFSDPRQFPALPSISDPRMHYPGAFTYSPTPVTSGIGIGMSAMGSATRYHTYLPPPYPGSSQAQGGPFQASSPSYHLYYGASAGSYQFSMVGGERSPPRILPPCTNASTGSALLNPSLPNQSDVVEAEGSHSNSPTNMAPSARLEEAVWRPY
Method notes: RUNX1 binding intensity (PBM fluorescence), RUNX1 alone (arbitrary fluorescence units); higher = stronger binding
Particulars: RUNX1 concentration 2 nM; ETS1 concentration 0 nM
I'd be grateful if you could share measured RUNX1 binding intensity for these entries.
Lab note: jot down the number only; don't add units.

Looking up `GGAGGCGGAAGTGGAGGTTGTTGTGGCTCCGAGGGC` , I see its RUNX1 binding intensity listed as 727

Looking up `TTCTTCCGGCAACTGCTGCTGAGGCTGCGGTGGCGG` , I see its RUNX1 binding intensity listed as 799

Looking up `TGGAAGAGGGCAGGAAGTGTTGTGGTCACTCCCACC` , I see its RUNX1 binding intensity listed as 856

Looking up `CTCACAGCAGCCCCAGGAAACCACCTCTTCCTTCAG` , I see its RUNX1 binding intensity listed as 997

Looking up `GGCAGGAAAGAGCTGATGCATTTCAACCGCAGCCTG` , I see its RUNX1 binding intensity listed as 1110

Looking up `GACTGGTTTCCTGGTTTTGATGTGGTTTAGAGAAAA` , I see its RUNX1 binding intensity listed as 1080

---

I'd be grateful if you could share measured ETS1 binding intensity for these entries.
Experimental target: ETS1 (UniProt P14921)
Sequence: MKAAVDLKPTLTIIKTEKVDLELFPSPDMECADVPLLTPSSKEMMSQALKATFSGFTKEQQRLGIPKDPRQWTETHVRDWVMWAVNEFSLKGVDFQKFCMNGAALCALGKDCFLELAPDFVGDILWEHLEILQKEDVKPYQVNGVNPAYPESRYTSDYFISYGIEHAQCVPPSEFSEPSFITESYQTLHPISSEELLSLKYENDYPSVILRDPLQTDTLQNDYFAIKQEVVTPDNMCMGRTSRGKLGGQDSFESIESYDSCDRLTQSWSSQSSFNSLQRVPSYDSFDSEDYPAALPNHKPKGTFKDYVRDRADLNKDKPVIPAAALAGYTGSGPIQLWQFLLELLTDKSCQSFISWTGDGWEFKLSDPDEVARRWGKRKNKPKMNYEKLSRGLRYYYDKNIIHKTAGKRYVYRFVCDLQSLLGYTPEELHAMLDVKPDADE
Method notes: ETS1 binding intensity (PBM fluorescence), ETS1 alone (arbitrary fluorescence units); higher = stronger binding
Particulars: ETS1 concentration 1 nM; RUNX1 concentration 0 nM
Lab note: jot down the number only; don't add units.

Looking up `GCCCCAGCGTTTCCTCTTACCCACAATGCCCCGCCC` , I see its ETS1 binding intensity listed as 794

Looking up `CTTCATCAACCCATCCTGTCTTGTGGTTAAGTCAAG` , I see its ETS1 binding intensity listed as 392

Looking up `TTACTTCTCAGGAAGCGCTGTGGGGCTGGGGTTGCT` , I see its ETS1 binding intensity listed as 676

Looking up `ACTTACTTCCCGACGTCACAGCCACCGAAACCACAG` , I see its ETS1 binding intensity listed as 468

Looking up `GCGCAGGTCCCGGATGTTGCGGACAGTATGAGGCAA` , I see its ETS1 binding intensity listed as 3250

Looking up `ATGTGCCCAAAGGATGTCACCGCAAAGATCATAGGA` , I see its ETS1 binding intensity listed as 561

Looking up `TCTCTTCCTGTGATGGAAATACATTGAGGTTTGCGA` , I see its ETS1 binding intensity listed as 523

Looking up `CCAAAAACCCCAGGAGGATGTGGTGAGGAGGGAAGG` , I see its ETS1 binding intensity listed as 1110

Looking up `TACCCCGCCGGAAGCCCCCTGCTCTGTGGGAACCGG` , I see its ETS1 binding intensity listed as 2480

Looking up `TCATTCTCTGATAAAGGAAGTGGTTACAGCACAATT` , I see its ETS1 binding intensity listed as 2910

Looking up `TCCCCGGCAGCTTCCTCGCCCCGACCGCAGTGTTCC` , I see its ETS1 binding intensity listed as 368

Looking up `GCCTCCTCCCATTTCCTCCATGTGGTCAATCCAGTT` , I see its ETS1 binding intensity listed as 459

Looking up `CCGAGCTTAACGACATCCTGCGGCTCAGCGTGGAGG` , I see its ETS1 binding intensity listed as 435

Looking up `CAAGGCACCAACGGATGTGGTATCTGGTGAGGGCTT` , I see its ETS1 binding intensity listed as 2150

Looking up `ACCTTCTGTTCCCTTCCTCAGACCGCAGGCGAGATG` , I see its ETS1 binding intensity listed as 367

Looking up `CTCCTCCCCCACTTCCTATTTTTACCGCAGTTGCAC` , I see its ETS1 binding intensity listed as 752

Looking up `GCCTGTGGAGTTGCAGGATGTGGTTGGCGAAAAGAA` , I see its ETS1 binding intensity listed as 2130

Looking up `GTAGCTCCTCCCACTTCCCGTGGTTTTCGGTTGAAC` , I see its ETS1 binding intensity listed as 564

Looking up `GGACAAAACATCATAGGAAGTGGGTTTTGGGGTGAG` , I see its ETS1 binding intensity listed as 1500

Looking up `ACCGCCGGAAGTTTCTGCCGCGGCTTTGCGGGGACG` , I see its ETS1 binding intensity listed as 3320

Looking up `AGAAAAGGAAATGGTGGGCTGCACACCACAGCTCAC` , I see its ETS1 binding intensity listed as 477

Looking up `TGGCAGCGGGTGCGGAAACCACAGGCCTCCAGGCTT` , I see its ETS1 binding intensity listed as 701

Looking up `TGGGCACGGGAGGAAGAGGCTGGGTGGTAAACAGGA` , I see its ETS1 binding intensity listed as 467

Looking up `GTTATTCTCCCCTTCCTGTGGTGTGTTTTGATGGTA` , I see its ETS1 binding intensity listed as 702

Looking up `GTGCTCCTCGCTTCCTCCGCGGTCTTCCGAGCGGTC` , I see its ETS1 binding intensity listed as 465

Numbers sourced from the supplement of paper PMC10681739.
